Experiment: gradient 5% acetonitrile 3 min, to 50% in 2 min, to 85% in 15 min, held 3 min, 100 µL/min
Details: column: Zorbax Extend-C18 2.1 x 50 mm; eluents: water / acetonitrile, 0.1% formic acid
Parameter RP-LC retention time: see the listing below.
Record the result as number plus unit.

These recorded examples may help you get a feel for the data.
compound	recorded_value
CCOc1ccccc1NC(=O)c1c(O)c2cccnc2n(-c2ccc(F)cc2)c1=O	1280 s
CCCc1nnc(-c2cccnc2N2CCN(C(=O)c3ccoc3)CC2)o1	728 s
CCOc1ccc(CNC(=O)CN2CC=C(c3cnn(-c4ccccc4)c3)CC2)cc1	722 s
CN1CCN(CCNC(=O)c2ccc3nc(-c4ccc(Cl)cc4)cn3c2)CC1	579 s
CCn1cnc(S(=O)(=O)N2CCC(C(=O)N3CCC(C)CC3)CC2)c1	678 s
O=C(c1ccccc1Cl)N1CCN(c2cc(-c3cccs3)[nH]n2)CC1	789 s
CCc1cc(C(=O)Nc2ccccc2F)nc2ccnn12	1060 s
O=C(NCc1ccncc1)c1cc2cc(Cl)ccc2[nH]1	618 s

Look up RP-LC retention time for this compound: "CCn1cc(-c2nc(C)c(C(=O)N3CCc4ccccc43)s2)c2cccnc21" 1030 s

Look up RP-LC retention time for this compound: Cc1cc(C2CCCN2C(=O)Cc2ccc(F)cc2)no1 (stereo not drawn) 775 s

Look up RP-LC retention time for this compound: O=C(CC1COc2ccccc2NC1=O)NCCc1ccc(Cl)cc1 (stereo not drawn) 910 s

Look up RP-LC retention time for this compound: "COCCN(CCOC)C(=O)Cc1csc(NC(=O)Nc2ccc(Cl)cc2)n1" 733 s

Look up RP-LC retention time for this compound: "COc1ccc(-n2c(=O)n(C)c(=O)c3cc(C(=O)Nc4ccc(F)cc4C)cnc32)cc1" 866 s

###

Assay: gradient 5% acetonitrile 3 min, to 50% in 2 min, to 85% in 15 min, held 3 min, 100 µL/min
Conditions: column: Zorbax Extend-C18 2.1 x 50 mm; eluents: water / acetonitrile, 0.1% formic acid
Category | rule: reported RP-LC retention time within range, see low class (below 700 s), middle class (700 s to below 800 s), high class (800 s or more)

compound	label
Cc1ccc2c(c1)C(O)(CC(=O)c1ccc(NC(=O)C3CCCCC3)cc1)C(=O)N2 (stereo unspecified)	middle class
Clc1ccccc1N1CCN(c2ncnc3[nH]ncc23)CC1	low class
Cc1nc(-n2nc(C)c(CC(=O)N3CCCCCC3)c2C)sc1C	high class
CCn1cc(CCN2CCN(S(=O)(=O)c3cccc(C#N)c3)CC2)c2cccnc21	low class
O=C(NCc1c[nH]c2ncccc12)C1CCC1	low class

Bin? "CCOC(=O)c1c(S(=O)(=O)N2CCC(C(=O)Nc3ccc(OC)cc3)CC2)c(C)n(CC)c1C" high class

Bin? COc1ccc(CCNC(=O)C2CCCN(S(=O)(=O)c3ccc(OC)c(C)c3)C2)cc1 (stereo unspecified) high class

Bin? "Cc1ccc(S(=O)(=O)N2CC3CN(C(=O)COCc4ccccc4)CC(C2)O3)cc1" high class

Bin? O=C(c1ccc(Cl)cc1)N(CCS(=O)(=O)N1CCNCC1)CC1CCCO1 (stereo unspecified) low class

Bin? "O=C(CCc1nnn2c1CN(C(=O)NC1CCCCC1)CC2)N1CCOCC1" low class

Bin? "COc1ccc(N2CCN(C(=O)c3cc4cc5cc(OC)ccc5nc4o3)CC2)cc1" high class

Bin? CCOc1ccc(CNC(=O)C2CCCN(c3ccc(=O)n(-c4ccc(C)c(Cl)c4)n3)C2)cc1 (stereo unspecified) high class

Bin? "Cc1ccc(Nc2c(-c3ccc(O)cc3)nc3cccc(C)n23)cc1" middle class
